Tested on: Vero African green monkey kidney cell line
Procedure details: Cytotoxicity towards eukaryotic cells
Format: cell-based
Setup conditions: Chlorocebus sabaeus, 48 h, two days
pIC50: −log10 of the molar value.
Measure name: pIC50

Prompt line: Requested read-out: pIC50. Entry: NNC(=O)c1ccncc1 [Isoniazid (INH), isoniazid]
Response line: < 4.00

---

Test system: M. tuberculosis H37Rv
Procedure details: MIC, IC50 and IC90 under aerobic conditions (growth after five days)
Type: cell-based, Mycobacterium tuberculosis
Setup conditions: Mycobacterium tuberculosis, H37RV, aerobic conditions; isoniazid-sucrose series, equal molar ratios
Measure name: IC50 (nM)
Number only, in nM; omit the unit.

Prompt line: Requested read-out: IC50. Entry: "NNC(=O)c1ccncc1"
Response line: 630

Sourced from patent US10335374B2
